- tested-system: human NTPDase3 (Homo sapiens)
- Sequence (O75355 whole entry): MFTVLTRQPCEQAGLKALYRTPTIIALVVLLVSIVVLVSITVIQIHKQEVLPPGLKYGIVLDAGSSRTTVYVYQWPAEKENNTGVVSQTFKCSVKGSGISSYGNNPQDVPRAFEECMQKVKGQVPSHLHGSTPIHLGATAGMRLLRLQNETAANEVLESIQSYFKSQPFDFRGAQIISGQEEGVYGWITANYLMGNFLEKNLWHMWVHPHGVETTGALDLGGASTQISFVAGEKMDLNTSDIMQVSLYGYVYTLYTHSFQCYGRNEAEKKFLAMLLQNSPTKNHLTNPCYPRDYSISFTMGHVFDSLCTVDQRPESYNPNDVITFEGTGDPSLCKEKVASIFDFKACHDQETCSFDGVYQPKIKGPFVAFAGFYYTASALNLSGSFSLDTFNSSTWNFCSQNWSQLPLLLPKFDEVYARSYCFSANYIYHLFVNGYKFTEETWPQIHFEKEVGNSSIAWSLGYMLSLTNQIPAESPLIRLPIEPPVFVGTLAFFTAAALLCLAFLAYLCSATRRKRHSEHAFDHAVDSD
- experimental-protocol: NTPDase inhibition assay by capillary electrophoresis (CE), NTPDase3
- Type: biochemical
- condition-description: 1 mM compound, ATP 320 μM
metric: inhibition at 1000 µM (%)
Numbers only, in %.

Solved cases (9 shown):
- compound: "CCOP(=O)(Cc1ccc(NC(=O)CNC(=O)[C@H]2O[C@@H](n3cnc4c(N)ncnc43)C(O)C2O)cc1)OCC (stereo in doubt)"
  metric: "inhibition at 1000 µM"
  endpoint-value: 0
- compound: "CCOP(=O)(Cc1ccc(NC(=O)CCCNC(=O)[C@H]2O[C@@H](n3cnc4c(N)ncnc43)C(O)C2O)cc1)OCC (stereo in doubt)"
  metric: "inhibition at 1000 µM"
  endpoint-value: 0
- compound: "CCOP(=O)(Cc1ccc(NC(=O)CCNC(=O)[C@H]2O[C@@H](n3cnc4c(N)ncnc43)C(O)C2O)cc1)OCC (stereo in doubt)"
  metric: "inhibition at 1000 µM"
  endpoint-value: 0
- compound: "CCOP(=O)(Cc1ccc(NC(=O)CCCNC(=O)[C@H]2O[C@@H](n3ccc(=O)[nH]c3=O)C(O)C2O)cc1)OCC (stereo in doubt)"
  metric: "inhibition at 1000 µM"
  endpoint-value: 48
- compound: "CCOP(=O)(CNC(=O)CCNC(=O)[C@H]1O[C@@H](n2ccc(=O)[nH]c2=O)[C@H](O)[C@@H]1O)OCC"
  metric: "inhibition at 1000 µM"
  endpoint-value: 0
- compound: "CCOP(=O)(Cc1ccc(NC(=O)CCNC(=O)[C@H]2O[C@@H](n3ccc(=O)[nH]c3=O)C(O)C2O)cc1)OCC (stereo in doubt)"
  metric: "inhibition at 1000 µM"
  endpoint-value: 40
- compound: "CCOP(=O)(CCNC(=O)CNC(=O)[C@H]1O[C@@H](n2ccc(=O)[nH]c2=O)C(O)C1O)OCC (stereo in doubt)"
  metric: "inhibition at 1000 µM"
  endpoint-value: 22
- compound: "CCOP(=O)(CNC(=O)CCCNC(=O)[C@H]1O[C@@H](n2ccc(=O)[nH]c2=O)C(O)C1O)OCC (stereo in doubt)"
  metric: "inhibition at 1000 µM"
  endpoint-value: 0
- compound: "CCOP(=O)(Cc1ccc(NC(=O)CNC(=O)[C@H]2O[C@@H](n3ccc(=O)[nH]c3=O)C(O)C2O)cc1)OCC (stereo in doubt)"
  metric: "inhibition at 1000 µM"
  endpoint-value: 0

Now for the compound whose inhibition at 1000 µM we want.
# input Quick check: inhibition at 1000 µM of CCOP(=O)(CNC(=O)CNC(=O)[C@H]1O[C@@H](n2ccc(=O)[nH]c2=O)C(O)C1O)OCC (stereo in doubt) ?
# output 0

----------
Exercise: for every item that follows, state its recorded inhibition at 10 µM.
- tested-system: hP2Y12 (Homo sapiens, UniProt Q9H244)
- Sequence (Q9H244 whole entry): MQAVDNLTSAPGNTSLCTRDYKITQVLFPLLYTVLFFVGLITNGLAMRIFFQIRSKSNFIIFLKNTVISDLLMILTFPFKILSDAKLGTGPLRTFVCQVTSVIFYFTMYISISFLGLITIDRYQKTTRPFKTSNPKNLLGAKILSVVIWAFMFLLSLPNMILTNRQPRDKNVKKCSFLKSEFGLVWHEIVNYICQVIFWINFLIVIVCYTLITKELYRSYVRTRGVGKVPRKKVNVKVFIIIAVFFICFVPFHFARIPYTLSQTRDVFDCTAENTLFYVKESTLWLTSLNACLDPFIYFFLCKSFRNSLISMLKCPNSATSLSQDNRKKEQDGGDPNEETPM
- experimental-protocol: Inhibition of [3H]PSB-0413 binding at hP2Y12
- condition-description: mean ± SEM, read-out: hP2Y12 % Inhibition of [^3H]PSB-0413 Binding at 10 μM, n = 3

Solved cases (3 shown):
- molecule: "CCOP(=O)(CNC(=O)CNC(=O)[C@H]1O[C@@H](n2ccc(=O)[nH]c2=O)C(O)C1O)OCC (stereo in doubt) [Compound 5]"
  inhibition at 10 µM: "31%"
- molecule: "CCOP(=O)(CNC(=O)CCNC(=O)[C@H]1O[C@@H](n2ccc(=O)[nH]c2=O)[C@H](O)[C@@H]1O)OCC [Compound 6]"
  inhibition at 10 µM: "7%"
- molecule: "CCOP(=O)(CCNC(=O)CNC(=O)[C@H]1O[C@@H](n2ccc(=O)[nH]c2=O)C(O)C1O)OCC (stereo in doubt) [Compound 8]"
  inhibition at 10 µM: "2%"

I have 3 molecules here; please give me inhibition at 10 µM for each one.
1. CCOP(=O)(Cc1ccc(NC(=O)CNC(=O)[C@H]2O[C@@H](n3cnc4c(N)ncnc43)C(O)C2O)cc1)OCC (stereo in doubt) [CC1]
2. CCOP(=O)(Cc1ccc(NC(=O)CNC(=O)[C@H]2O[C@@H](n3ccc(=O)[nH]c3=O)C(O)C2O)cc1)OCC (stereo in doubt) [Compound 2]
3. CCOP(=O)(CNC(=O)CCCNC(=O)[C@H]1O[C@@H](n2ccc(=O)[nH]c2=O)C(O)C1O)OCC (stereo in doubt) [Compound 7]

# output
1: -4%; 2: 2%; 3: 2%
